Values from PubChem BioAssay AID179

Tested on: CEM cells HIV-1 protection, formazan growth assay
MEASUREMENT_NOTES: NCI AIDS Antiviral Assay
QUANTITY_KIND: EC50

Qu. Write down EC50 measured for item "O=[As](O)(O)c1ccccc1F"
Ans. > 200 µM

Qu. Write down EC50 measured for item O=C1C(Cl)N(c2ccccc2[N+](=O)[O-])C1c1c[nH]c2ccccc12 (stereo unspecified)
Ans. > 275 µM

Qu. Write down EC50 measured for item Cc1ccc2c(C3Cc4ccccc4N3C(=O)/C=C\C(=O)O)c(C)[nH]c2c1 (stereo unspecified)
Ans. > 363 µM

Qu. Write down EC50 measured for item "CN(C)Cc1cc(/C=C/C(=O)c2ccc(Br)cc2)cc(CN(C)C)c1O"
Ans. > 200 µM

Qu. Write down EC50 measured for item "O=c1[nH]c(=O)n(COCc2ccccc2)c2ccc([N+](=O)[O-])cc12"
Ans. > 200 µM

Qu. Write down EC50 measured for item "CCCCCCCCCc1cc(=O)c2ccc(O)cc2o1"
Ans. > 1.91 µM

Qu. Write down EC50 measured for item "O=C1N=C2SC(=S)NC(=S)N2NC12c1ccccc1-c1ccccc12"
Ans. > 200 µM

Qu. Write down EC50 measured for item OCC12COC(c3ccccc3)N1C(c1ccccc1)OC2 (stereo unspecified)
Ans. > 200 µM

###

Tested on: CEM cells HIV-1 protection, formazan growth assay
MEASUREMENT_NOTES: NCI AIDS Antiviral Assay;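 active means compounds giving half or more protection of infected cells from virus-caused growth loss, again on retest; inactive means the rest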
Give one outcome, nothing more. List: True for active, False for inactive

Solved cases (6 shown):
COMPOUND | DISCRETE_LABEL
O=C1CCN(CCC(F)(F)C(F)(F)C(F)(F)C(F)(F)F)C(=S)N1 | False
Cc1cc(C)c(SSc2nnnn2C)c(C)c1 | False
Cc1[nH]c2ccccc2c1C1Cc2ccccc2N1C(=O)/C(C#N)=C/c1ccccc1 (stereo unspecified) | False
COC(=O)C(Cc1ccccc1)NP(=O)(O)OCC1OC(n2ccc(N)nc2=O)C(O)C1O (stereo unspecified) | False
Cc1ccc(/C=C2\CCOC2=O)cc1 | False
CCCCCCCCCCCC(=O)OCC(C[As](=O)(O)O)OC(=O)CCCCCCCCCCC (stereo unspecified) | False

Consider the record given below.
Qu. Write down the call the test reported for this compound. Item: "Cc1cc(=O)oc2c(C)c3oc(CBr)cc3cc12"
Ans. False

###

System: CEM cells HIV-1 protection, formazan growth assay
MEASUREMENT_NOTES: NCI AIDS Antiviral Assay
APPLIED_CONDITIONS: measured here: growth of uninfected CEM cells
Procedure: The ability of compounds to protect human CEM cells from HIV-1 infection is measured as a screen for new compounds capable of inhibiting the HIV virus. Five concentrations of drug were tested on uninfected and infected cells and cell growth was measured using a soluble formazan assay. […] Compounds that provided at least 50% protection were retested. Compounds that provided at least 50% protection on retest were listed as moderately active. […]
A collection of molecules and their measured IC50

Previously resolved entries follow.
MOLECULE | TESTED_TARGET | IC50
COc1ccc(N=Nc2c(N)nn3cc4c(nc23)CCCCC4)cc1 | CEM cells HIV-1 protection, formazan growth assay | 34.7 µM
COc1ccc(/C=C/C(=O)C(C)C)cc1 | CEM cells HIV-1 protection, formazan growth assay | 33.9 µM
CCOC(=O)C1=NN(c2ccccc2)C2=CC(C)=NN(C)C(=S)N21 | CEM cells HIV-1 protection, formazan growth assay | > 200 µM

Qu. Write down IC50 measured for item "N#CCCC1(CCC#N)CCCCCCC(CCC#N)(CCC#N)C(=O)C1=O"
Ans. > 200 µM

Qu. Write down IC50 measured for item "CN1CCCNCCN(CCc2ccccn2)CCCN(C)CC1"
Ans. > 132 µM

Qu. Write down IC50 measured for item CS(=O)CC(=O)c1ccccn1 (stereo unspecified)
Ans. > 200 µM
